assay: Protein binding in rat plasma at 100 ng/ml by HPLC analysis; format: ADME, cell-free; details: read-out: PPB (converted)
recorded.metric: fraction unbound at 100 ng/ml
One number for each entry.

fraction unbound at 100 ng/ml measured on Fc1ccc(NC(=S)N2CCN(c3ccnc4cc(Cl)ccc34)CC2)cc1 = 0.065

* * *

Would you kindly list inhibition at 48 h, 100 µM for each of these compounds?
assay: Growth inhibition of mouse RAW264.7 cells at 100 uM after 48 hrs by MTT assay; assay type: cell-based; conditions: read-out: GI
One number for each entry, in %.

Observe how each entry below is paired with its result.
compound.structure	unit.symbol	measured.result
Cc1ccc(NC(=S)N2CCN(c3ccnc4cc(Cl)ccc34)CC2)cc1	%	15.8
O=C(CN1CCN(c2ccnc3cc(Cl)ccc23)CC1)NCCc1ccccn1	%	26.3
O=C(CN1CCN(c2ccnc3cc(Cl)ccc23)CC1)NCc1ccccn1	%	36.4
O=C(CN1CCN(c2ccnc3cc(Cl)ccc23)CC1)Nc1ccccc1	%	26.2
O=C(Nc1ccc(Cl)cc1)N1CCN(c2ccnc3cc(Cl)ccc23)CC1	%	26.2
O=[N+]([O-])c1cnc(N2CCN(c3ccnc4cc(Cl)ccc34)CC2)s1	%	35.1

Could you now look at the following compound, please?
inhibition at 48 h, 100 µM measured on CC(=O)c1ccc(NC(=S)N2CCN(c3ccnc4cc(Cl)ccc34)CC2)cc1 = 27.2
